I'd appreciate it if you could supply BWD values for the items below.
Test system: Mus musculus
EXPERIMENT: Body Weight Difference (BWD) of test animals administered with 12.5 mg/kg compound is determined on day 5 for P388 tumor cells
Assay type: functional
Answers are plain numbers, in g.

Recorded results for 3 compounds are shown here.
[
  {
    "SMILES_REPR": "CNC(=O)OCc1nc(SC)n(C)c1COC(=O)NC",
    "SYSTEM_UNDER_TEST": "Mus musculus",
    "OUTPUT_UNIT": "g",
    "BWD": -1.2
  },
  {
    "SMILES_REPR": "CSc1nc(COC(=O)NC(C)C)c(COC(=O)NC(C)C)n1-c1ccccc1",
    "SYSTEM_UNDER_TEST": "Mus musculus",
    "OUTPUT_UNIT": "g",
    "BWD": -0.2
  },
  {
    "SMILES_REPR": "CC(C)NC(=O)OCc1ncn(-c2ccccc2)c1COC(=O)NC(C)C",
    "SYSTEM_UNDER_TEST": "Mus musculus",
    "OUTPUT_UNIT": "g",
    "BWD": -0.4
  }
]

Dear colleague, could you please provide BWD for the compounds listed below?
1. CSc1nc(COC(=O)NC(C)C)c(COC(=O)NC(C)C)n1Cc1ccccc1
2. CSc1nc(COC(=O)NC(C)C)c(COC(=O)NC(C)C)n1C

[reply]
1: -0.2; 2: 2.6
